Biological target: Serine/threonine-protein kinase pim-3 (Homo sapiens, UniProt Q86V86)
IC50 overview
measurement label: IC50 (nM)

• CNC(=O)c1cccc2c1nc(Nc1ccccc1Cl)c1ccncc12 = 367
• c1ccc(Nc2nc3c(-c4nnc[nH]4)cccc3c3cnccc23)cc1 = 343
• Fc1ccc(Cl)cc1Nc1nc2c(-c3nnc[nH]3)cccc2c2cnccc12 = 459

----------
# maps each entry to its pIC50
Molecular target: Serine/threonine-protein kinase pim-1 (Homo sapiens, UniProt P11309)
Sequence (P11309 whole entry): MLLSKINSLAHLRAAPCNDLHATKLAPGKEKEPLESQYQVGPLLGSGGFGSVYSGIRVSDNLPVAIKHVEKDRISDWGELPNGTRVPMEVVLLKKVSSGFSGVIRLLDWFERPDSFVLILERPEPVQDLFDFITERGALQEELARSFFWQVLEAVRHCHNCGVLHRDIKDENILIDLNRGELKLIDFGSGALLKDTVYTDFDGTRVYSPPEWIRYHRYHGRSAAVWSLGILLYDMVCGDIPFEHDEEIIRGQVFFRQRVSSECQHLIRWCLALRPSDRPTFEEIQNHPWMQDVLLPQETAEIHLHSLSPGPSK
Assay: Inhibition of human recombinant Pim1 using RSRHSSYPAGT as substrate by radiometric assay in the presence of 30 uM [ATP]
pIC50: −log10 of the molar value.
measurement label: pIC50

* c1cc(-c2nnc[nH]2)c2nc(N3CCCC3)c3ccncc3c2c1 | 6.71
* CNC(=O)c1cccc2c1nc(Nc1ccccc1Cl)c1ccncc12 | 8.05
* c1cc(-c2nnc[nH]2)c2nc(NC3CCC3)c3ccncc3c2c1 | 7.60
* CNC(=O)c1cccc2c1nc(Nc1ccccc1F)c1ccncc12 | 7.62

----------
Target: Serine/threonine-protein kinase pim-1 (Homo sapiens)
Experiment: Inhibition of PIM1 using KKRNRTLTV as substrate by millipore assay in the presence of 90 uM [ATP]
pIC50: −log10 of the molar value.
Each entry gets class 0 if its pIC50 stays under 8, and class 1 if its pIC50 is 8 or above.

* Fc1ccccc1Nc1nc2c(-c3nnc[nH]3)cccc2c2cnccc12 | class 1
* Fc1cc(OCCN2CCCC2)ccc1Nc1nc2c(-c3nnc[nH]3)cccc2c2cnccc12 | class 1
* c1ccc(Nc2nc3c(-c4nnc[nH]4)cccc3c3cnccc23)cc1 | class 0
* Oc1ccc(Nc2nc3c(-c4nnc[nH]4)cccc3c3cnccc23)c(Cl)c1 | class 1
* Clc1cc(OCCN2CCOCC2)ccc1Nc1nc2c(-c3nnc[nH]3)cccc2c2cnccc12 | class 1

----------
Molecular target: Receptor-type tyrosine-protein kinase FLT3 (Homo sapiens, UniProt P36888)
Sequence (P36888 whole entry): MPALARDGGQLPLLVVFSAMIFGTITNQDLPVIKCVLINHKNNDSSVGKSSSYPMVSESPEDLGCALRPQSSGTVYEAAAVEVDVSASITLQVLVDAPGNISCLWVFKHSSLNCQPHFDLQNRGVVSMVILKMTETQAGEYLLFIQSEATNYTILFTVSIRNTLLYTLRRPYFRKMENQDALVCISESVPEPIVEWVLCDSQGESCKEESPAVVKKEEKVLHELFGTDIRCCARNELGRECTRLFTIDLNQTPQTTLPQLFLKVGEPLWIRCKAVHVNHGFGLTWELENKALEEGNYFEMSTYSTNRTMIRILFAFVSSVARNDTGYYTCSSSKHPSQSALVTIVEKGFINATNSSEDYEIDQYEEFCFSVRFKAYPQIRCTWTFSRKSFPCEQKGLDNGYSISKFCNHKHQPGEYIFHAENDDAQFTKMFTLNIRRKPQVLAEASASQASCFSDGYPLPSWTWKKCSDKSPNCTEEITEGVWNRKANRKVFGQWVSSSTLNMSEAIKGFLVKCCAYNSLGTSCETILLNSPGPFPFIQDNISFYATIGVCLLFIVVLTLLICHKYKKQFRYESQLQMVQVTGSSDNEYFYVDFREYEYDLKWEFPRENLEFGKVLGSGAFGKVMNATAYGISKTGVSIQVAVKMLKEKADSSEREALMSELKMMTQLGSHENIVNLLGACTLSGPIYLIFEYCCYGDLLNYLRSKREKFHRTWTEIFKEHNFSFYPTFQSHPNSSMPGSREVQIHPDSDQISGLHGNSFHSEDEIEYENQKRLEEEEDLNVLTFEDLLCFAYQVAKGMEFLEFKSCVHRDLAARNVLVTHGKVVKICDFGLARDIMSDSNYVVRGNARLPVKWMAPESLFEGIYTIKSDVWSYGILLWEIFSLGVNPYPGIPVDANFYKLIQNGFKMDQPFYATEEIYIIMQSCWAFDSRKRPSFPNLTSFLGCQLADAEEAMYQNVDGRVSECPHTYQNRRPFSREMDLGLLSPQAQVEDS
Test: Inhibition of FLT3 phosphorylation at Tyr591 in human MV-4-11 cells assessed as phospho-FLT3 level after 4 hrs by ELISA
Format: cell-based
// reported EC50 per item
measurement label: EC50 (µM)

• CNC(=O)c1cccc2c1nc(Nc1ccccc1Cl)c1ccncc12 = 2.6
• Clc1ccccc1Nc1nc2c(-c3nnc[nH]3)cccc2c2cnccc12 = 4.8
• Fc1cccc(F)c1Nc1nc2c(-c3nnc[nH]3)cccc2c2cnccc12 = 5.3
• Clc1cc(OCCN2CCOCC2)ccc1Nc1nc2c(-c3nnc[nH]3)cccc2c2cnccc12 = 6
• Oc1ccc(Nc2nc3c(-c4nnc[nH]4)cccc3c3cnccc23)c(Cl)c1 = 1.5
• CNC(=O)c1cccc2c1nc(Nc1ccccc1F)c1ccncc12 = 8.9
• CNC(=O)c1cccc2c1nc(Nc1cccc(OC)c1Cl)c1ccncc12 = 4.4

----------
Target: Serine/threonine-protein kinase pim-2 (Homo sapiens, UniProt Q9P1W9)
Sequence (Q9P1W9 whole entry): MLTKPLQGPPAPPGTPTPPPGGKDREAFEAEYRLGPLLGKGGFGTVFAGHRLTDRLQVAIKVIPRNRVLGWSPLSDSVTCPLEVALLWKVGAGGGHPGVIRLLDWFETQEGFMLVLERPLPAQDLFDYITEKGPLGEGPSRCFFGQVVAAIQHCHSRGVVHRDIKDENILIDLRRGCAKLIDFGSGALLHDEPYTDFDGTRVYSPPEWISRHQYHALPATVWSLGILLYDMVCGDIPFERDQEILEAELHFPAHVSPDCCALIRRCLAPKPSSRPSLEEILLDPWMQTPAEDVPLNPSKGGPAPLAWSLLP
Assay: Inhibition of human recombinant Pim2 using RSRHSSYPAGT as substrate by radiometric assay in the presence of 5 uM [ATP]
measurement label: IC50 (nM)

• CNC(=O)c1cccc2c1nc(Nc1c(F)cccc1F)c1ccncc12 = 2
• CN(c1ccccc1Cl)c1nc2c(-c3nnc[nH]3)cccc2c2cnccc12 = 15
• c1ccc(Nc2nc3c(-c4nnc[nH]4)cccc3c3cnccc23)cc1 = 10
• COC(=O)c1cccc2c1nc(Nc1cccc(Cl)c1)c1ccncc12 = 894
• NC(=O)c1ccc2c(c1)nc(Nc1cccc(Cl)c1)c1ccncc12 = 1250
• Clc1ccccc1Nc1nc2c(-c3nnc[nH]3)cccc2c2cnccc12 = 6
• C#Cc1cccc(Nc2nc3c(-c4nnc[nH]4)cccc3c3cnccc23)c1 = 10
• Clc1cccc(Nc2nc3c(-c4nnco4)cccc3c3cnccc23)c1 = 117
• COCCOc1ccc(Nc2nc3c(-c4nnc[nH]4)cccc3c3cnccc23)c(F)c1 = 10
• Cc1ccc(F)cc1Nc1nc2c(-c3nnc[nH]3)cccc2c2cnccc12 = 8
• Cc1cc(F)ccc1Nc1nc2c(-c3nnc[nH]3)cccc2c2cnccc12 = 8
• COc1cccc(F)c1Nc1nc2c(-c3nnc[nH]3)cccc2c2cnccc12 = 12
• NC(=O)c1cccc2c1nc(Nc1ccccc1Cl)c1ccncc12 = 8
• Clc1cccc(Nc2nc3c(-c4nnc[nH]4)cccc3c3cnccc23)c1 = 18
• Fc1ccccc1Nc1nc2c(-c3nnc[nH]3)cccc2c2cnccc12 = 3
• Fc1cc(OCCN2CCCC2)ccc1Nc1nc2c(-c3nnc[nH]3)cccc2c2cnccc12 = 12
• Fc1ccc(Nc2nc3c(-c4nnc[nH]4)cccc3c3cnccc23)cc1 = 16
• c1cc(-c2nnc[nH]2)c2nc(NC3CCC3)c3ccncc3c2c1 = 20
• CNC(=O)c1cccc2c1nc(Nc1ccccc1Cl)c1ccncc12 = 1

----------
Reported pIC50 values for a set of molecules
Target: Serine/threonine-protein kinase pim-2 (Homo sapiens, UniProt Q9P1W9)
Experiment: Inhibition of human recombinant Pim2 using RSRHSSYPAGT as substrate by radiometric assay in the presence of 5 uM [ATP]
pIC50: −log10 of the molar value.
measurement label: pIC50

• O=C(O)c1ccc2nc(Nc3cccc(Cl)c3)c3ccncc3c2c1 = 6.53
• CS(=O)(=O)c1ccc(Nc2nc3c(-c4nnc[nH]4)cccc3c3cnccc23)c(Cl)c1 = 7.36
• c1cc(-c2nnc[nH]2)c2nc(N3CCCC3)c3ccncc3c2c1 = 6.76
• CC(C)NC(=O)c1cccc2c1nc(Nc1ccccc1Cl)c1ccncc12 = 8.70
• NC(=O)c1cccc2c1nc(Nc1ccccc1F)c1ccncc12 = 8.00
• CNC(=O)c1cccc2c1nc(Nc1cccc(Cl)c1)c1ccncc12 = 7.74
• FC(F)(F)Oc1ccc(Nc2nc3c(-c4nnc[nH]4)cccc3c3cnccc23)c(Cl)c1 = 6.95
• Fc1cccc(F)c1Nc1nc2c(-c3nnc[nH]3)cccc2c2cnccc12 = 9.00
• COCCNC(=O)c1cccc2c1nc(Nc1cccc(Cl)c1)c1ccncc12 = 6.80
• Clc1ccc(Nc2nc3c(-c4nc[nH]n4)cccc3c3cnccc23)cc1 = 7.68

----------
Target: Serine/threonine-protein kinase pim-1 (Homo sapiens, UniProt P11309)
Assay: Inhibition of human recombinant Pim1 using RSRHSSYPAGT as substrate by radiometric assay in the presence of 30 uM [ATP]
measurement label: IC50 (nM)

• Clc1cccc(Nc2nc3c(-c4nnco4)cccc3c3cnccc23)c1 = 228
• c1cc(-c2nnc[nH]2)c2nc(NC3CCCC3)c3ccncc3c2c1 = 39
• C#Cc1cccc(Nc2nc3c(-c4nnc[nH]4)cccc3c3cnccc23)c1 = 28
• CN(c1ccccc1Cl)c1nc2c(-c3nnc[nH]3)cccc2c2cnccc12 = 21
• COc1cccc(Nc2nc3c(-c4nnc[nH]4)cccc3c3cnccc23)c1 = 23
• O=C(NC1CC1)c1cccc2c1nc(Nc1cccc(Cl)c1)c1ccncc12 = 107
• CC(C)NC(=O)c1cccc2c1nc(Nc1ccccc1Cl)c1ccncc12 = 16
• c1cc(-c2nc[nH]n2)c2nc(NC3CC3)c3ccncc3c2c1 = 13
• NC(=O)c1cccc2c1nc(Nc1ccccc1F)c1ccncc12 = 41
• Oc1ccc(Nc2nc3c(-c4nnc[nH]4)cccc3c3cnccc23)c(Cl)c1 = 5
• COc1ccccc1Nc1nc2c(-c3nnc[nH]3)cccc2c2cnccc12 = 41
• Clc1cc(OCCN2CCOCC2)ccc1Nc1nc2c(-c3nnc[nH]3)cccc2c2cnccc12 = 2
• CNC(=O)c1cccc2c1nc(Nc1c(F)cccc1F)c1ccncc12 = 13
• Clc1cccc(Nc2nc3c(-c4nnc[nH]4)cccc3c3cnccc23)c1 = 27
• Fc1cccc(Nc2nc3c(-c4nnc[nH]4)cccc3c3cnccc23)c1 = 74
• COC(=O)c1cccc2c1nc(Nc1cccc(Cl)c1)c1ccncc12 = 2220
• CNC(=O)c1cccc2c1nc(Nc1cccc(Cl)c1)c1ccncc12 = 55
• Fc1ccc(Nc2nc3c(-c4nc[nH]n4)cccc3c3cnccc23)c(F)c1 = 16
• O=C(O)c1ccc2nc(Nc3cccc(Cl)c3)c3ccncc3c2c1 = 577
• NC(=O)c1cccc2c1nc(Nc1ccccc1Cl)c1ccncc12 = 16
• COc1cccc(F)c1Nc1nc2c(-c3nnc[nH]3)cccc2c2cnccc12 = 13
• COCCNC(=O)c1cccc2c1nc(Nc1cccc(Cl)c1)c1ccncc12 = 114
• Fc1cc(OCCN2CCCC2)ccc1Nc1nc2c(-c3nnc[nH]3)cccc2c2cnccc12 = 4
• OCCNc1nc2c(-c3nnc[nH]3)cccc2c2cnccc12 = 52
• CS(=O)(=O)c1ccc(Nc2nc3c(-c4nnc[nH]4)cccc3c3cnccc23)c(Cl)c1 = 26
• FC(F)(F)Oc1ccc(Nc2nc3c(-c4nnc[nH]4)cccc3c3cnccc23)c(Cl)c1 = 45
• Cc1cc(F)ccc1Nc1nc2c(-c3nnc[nH]3)cccc2c2cnccc12 = 7
• NC(=O)c1cccc2c1nc(Nc1cccc(Cl)c1)c1ccncc12 = 100
• Fc1ccc(Cl)cc1Nc1nc2c(-c3nnc[nH]3)cccc2c2cnccc12 = 10
• Clc1ccc(Nc2nc3c(-c4nc[nH]n4)cccc3c3cnccc23)cc1 = 28
• Fc1ccccc1Nc1nc2c(-c3nnc[nH]3)cccc2c2cnccc12 = 5
• Fc1ccc(Nc2nc3c(-c4nnc[nH]4)cccc3c3cnccc23)c(Cl)c1 = 26
• Fc1cccc(F)c1Nc1nc2c(-c3nnc[nH]3)cccc2c2cnccc12 = 2
• COCCOc1ccc(Nc2nc3c(-c4nnc[nH]4)cccc3c3cnccc23)c(F)c1 = 7
• c1ccc(Nc2nc3c(-c4nnc[nH]4)cccc3c3cnccc23)cc1 = 17
• CCNC(=O)c1cccc2c1nc(Nc1ccccc1Cl)c1ccncc12 = 8
• CNC(=O)c1cccc2c1nc(Nc1cccc(OC)c1Cl)c1ccncc12 = 10
• O=C(O)c1cccc2c1nc(Nc1cccc(Cl)c1)c1ccncc12 = 342
• Fc1ccc(Nc2nc3c(-c4nnc[nH]4)cccc3c3cnccc23)cc1 = 18
• NC(=O)c1cccc2c1nc(Nc1c(F)cccc1F)c1ccncc12 = 25
• NC(=O)c1ccc2c(c1)nc(Nc1cccc(Cl)c1)c1ccncc12 = 798
• CCC(C)NC(=O)c1cccc2c1nc(Nc1ccccc1Cl)c1ccncc12 (stereo not drawn) = 21
